- STUDY TARGET: huPA-H99Y-R35A (human)
- EXPERIMENT DESCRIPTION: enzyme inhibition (steady state, chromogenic substrate S-2444); about 2 nM enzyme (purified or conditioned medium of transfected cells) pre-incubated 15 min with varied peptide in HBS (10 mM HEPES pH 7.4, 140 mM NaCl) with 0.1% BSA at 37°C; substrate about KM; fit for competitive inhibition; highest peptide concentration 400 µM
Bridge positions count the residues as written; N and C are the ends. Square brackets hold non-standard residues; d marks the D form. Ends that are not written are not given here. Ala(1-amidino-4-piperidyl) = N=C(N)N1CCC(C[C@H](N)C(=O)O)CC1; Phe(4-guanidino) = N=C(N)Nc1ccc(C[C@H](N)C(=O)O)cc1
ENDPOINT LABEL: pKi
The meaning of pKi here: minus log10 of the concentration in molar units.

Q: Entry CPAYS[Phe(4-guanidino)]YLDC (disulfide 1-10) [mupain-1-12] has what pKi?
Ans: 5.49

Q: Entry CPAYS[Ala(1-amidino-4-piperidyl)]YLDC (disulfide 1-10; not fully specified) [mupain-1-16] has what pKi?
Ans: 5.60

Q: Entry CPAYS[Ala(1-amidino-4-piperidyl)]YLAC (disulfide 1-10; not fully specified) [Mupain-1-16 D9A] has what pKi?
Ans: 6.76
